Assignment: determine reported mean nematode size ln(EXT) (ln) for the given compounds.
Tested on: Caenorhabditis elegans N2
protocol.details: mean nematode size ln(EXT) after 48 h, plate-adjusted (DMSO control set to 6) (ln(EXT), control-adjusted); higher = larger nematodes / less growth inhibition
condition.details: 50 µM; exposure time 48 h
Structures can show the parent of a compound that is named as a salt.
Simply state the number, no unit and no words.

// lookup mean nematode size ln(EXT) (ln) for CCO/N=C(\CC)C1=C(O)CC(c2c(C)cc(C)cc2C)CC1=O (stereo not drawn)
6.08

Which measured mean nematode size ln(EXT) (ln) value corresponds to CCCCCCOC(=O)c1ccccc1C(=O)OCCCCCC [Dihexyl phthalate] ?
5.81

Would you mind telling me what mean nematode size ln(EXT) (ln) value was observed for CCC1(c2ccccc2)C(=O)NC(=O)NC1=O [Phenobarbital sodium salt] ?
5.87

Need mean nematode size ln(EXT) (ln), item `O=C(O)C(F)(F)C(F)(F)C(F)(F)C(F)(F)C(F)(F)C(F)(F)C(F)(F)C(F)(F)C(F)(F)F`
4.06

Quick one: mean nematode size ln(EXT) (ln) of CCCOc1nn(C(=O)NS(=O)(=O)c2ccccc2C(=O)OC)c(=O)n1C [Propoxycarbazone-sodium] ?
5.99

Which mean nematode size ln(EXT) (ln) value belongs to `COP(=O)(OC)SCn1c(=O)oc2cc(Cl)cnc21` ?
5.88

Can you look up the measured mean nematode size ln(EXT) (ln) of `Nc1ccc(Cl)cc1` for me?
5.28

Item O=P1(N(CCCl)CCCl)NCCCO1 (stereo not drawn) [Cytoxan hydrate] has what recorded mean nematode size ln(EXT) (ln)?
5.92

Any idea what its mean nematode size ln(EXT) (ln) is? The compound is `CCCOc1sc(C(=O)N2CCC(c3cc(CN)ccc3F)CC2)c(C)c1Br`
3.73

Field request: mean nematode size ln(EXT) (ln) | item: `Cc1ccc(C)c(O)c1`
5.95

Item under review: O=C(O)Cc1ccccc1Nc1c(Cl)cccc1Cl [Diclofenac sodium salt] . Reported mean nematode size ln(EXT) (ln)?
5.92

# get_value(readout='mean nematode size ln(EXT) (ln)', item= CC(COc1ccc(Oc2ccccc2)cc1)Oc1ccccn1 (stereo not drawn) )
4.84

Which mean nematode size ln(EXT) (ln) is reported for this compound? `Cn1sc(Cl)cc1=O`
5.9

Data request, read-out mean nematode size ln(EXT) (ln), for C#CC(C)(C)NC(=O)c1cc(Cl)cc(Cl)c1 [Propyzamide]
5.92

Given the entry `C=CCc1ccc(OC)c(OC)c1` , report its measured mean nematode size ln(EXT) (ln).
5.99

I am curious: what mean nematode size ln(EXT) (ln) value has been reported for `O=C(CCl)c1ccccc1` ?
5.82

Return reported mean nematode size ln(EXT) (ln); argument: `O=C(O)c1ccc2c(c1)nc(C(=O)NC1CCN(C3CC3)CC1)n2Cc1cc(-c2ccc(Cl)s2)on1`
5.82

Consider the compound `CCNc1nc(Cl)nc(NC(C)(C)C#N)n1` and give its measured mean nematode size ln(EXT) (ln).
6.26

What does the data say about its mean nematode size ln(EXT) (ln)? Entry: `O=C(CCCN1CCC(O)(c2ccc(Cl)cc2)CC1)c1ccc(F)cc1`
4.99

What value of mean nematode size ln(EXT) (ln) has been reported for the following compound? `CCOP(=S)(OCC)SCSP(=S)(OCC)OCC`
4.93

Using the record for Oc1ccc(C(c2ccc(O)cc2)C(Cl)(Cl)Cl)cc1 [2,2-Bis(4-hydroxyphenyl)-1,1,1-trichloroethane (HPTE)] , report its mean nematode size ln(EXT) (ln).
5.25

Which value of mean nematode size ln(EXT) (ln) has been reported for `CCc1c(C(=O)NN2CCCCC2)nn(-c2ccc(Cl)cc2Cl)c1-c1ccc(Br)cc1` in the records?
5.2

Entry `CCC(C)(C)C(=O)O[C@H]1C[C@@H](C)C=C2C=C[C@H](C)[C@H](CC[C@@H]3C[C@@H](O)CC(=O)O3)[C@H]21` has what mean nematode size ln(EXT) (ln)?
5.7

Returns the measured mean nematode size ln(EXT) (ln) for the input compound. Input: CC(CO)OC(C)CO.CC(O)COCC(C)O (stereo not drawn)
5.74

Name the reported mean nematode size ln(EXT) (ln) value associated with the compound OCCC(F)(F)C(F)(F)C(F)(F)C(F)(F)C(F)(F)C(F)(F)C(F)(F)C(F)(F)F [1,1,2,2-Tetrahydroperfluoro-1-decanol]
5.54

// returns reported mean nematode size ln(EXT) (ln) for input `Sc1nc2ccccc2s1`
5.69

Can you share its mean nematode size ln(EXT) (ln)? I mean this compound: `CC(C)(C)c1cc(O)c(C(C)(C)C)cc1O`
5.7

What value of mean nematode size ln(EXT) (ln) has been recorded for this entry: `CNC(=O)O/N=C/C(C)(C)SC`
5.55

Query (compound): `CO/C=C(/C(=O)OC)c1ccccc1COc1cccc(C(F)(F)F)n1` ; field requested: mean nematode size ln(EXT) (ln)
4.97

// lookup mean nematode size ln(EXT) (ln) for `CNCc1cc(F)ccc1Oc1ccc(Cl)c(Cl)c1`
4.33

Which measured mean nematode size ln(EXT) (ln) value corresponds to CCOc1cc(C(C)(C)C)ccc1C1COC(c2c(F)cccc2F)=N1 (stereo not drawn) ?
4.37

What measured mean nematode size ln(EXT) (ln) goes with `CC(=O)c1ccc2c(c1)[C@H](NC(=O)c1ccc(F)cc1)[C@@H](O)C(C)(C)O2` ?
5.99

I'd like to know its mean nematode size ln(EXT) (ln). The compound in question is `Clc1ccc(C(c2ccc(Cl)cc2)C(Cl)(Cl)Cl)cc1`
3.44

Value lookup for mean nematode size ln(EXT) (ln); key = `Cc1ccc(O)c(C)c1`
5.85

State the recorded mean nematode size ln(EXT) (ln) for this entry: CC(C)=CC1C(C(=O)OCc2coc(Cc3ccccc3)c2)C1(C)C (stereo not drawn)
5.84

For `Cc1cc(C)nc(Nc2ccccc2)n1` , what is its reported mean nematode size ln(EXT) (ln)?
5.68

Consider the compound shown here: `Cc1cc(C)cc(C)c1` What is its recorded mean nematode size ln(EXT) (ln)?
5.89

If you can, please state the reported mean nematode size ln(EXT) (ln) value of `CN(C)C(=S)[S-].CN(C)C(=S)[S-].[Zn+2]` .
5.84

====

System: Caenorhabditis elegans N2
protocol.details: mean nematode size ln(EXT) after 48 h, plate-adjusted (DMSO control set to 6) (ln(EXT), control-adjusted); higher = larger nematodes / less growth inhibition
condition.details: 200 µM; exposure time 48 h
Record form. Attribute: mean nematode size ln(EXT) (ln). Fill in for each entry.

Would you kindly share the measured mean nematode size ln(EXT) (ln) for `CON(C)C(=O)Nc1ccc(Cl)c(Cl)c1` ?
4.43

// query mean nematode size ln(EXT) (ln) value for entry `CO/C=C(/C(=O)OC)c1ccccc1COc1cccc(C(F)(F)F)n1`
4.61

Can you look up the measured mean nematode size ln(EXT) (ln) of CNC(C)=O [N-Methylacetamide] for me?
5.84

Need mean nematode size ln(EXT) (ln) of `O=C=NCCCCCCN=C=O` , thanks.
5.66

Which mean nematode size ln(EXT) (ln) value is on record for CC1(C)C(C(=O)OC(C#N)c2cccc(Oc3ccccc3)c2)C1(C)C (stereo not given) ?
4.68

====

Please respond with reported mean nematode size ln(EXT) (ln) for every item in the list.
Test system: Caenorhabditis elegans N2
protocol.details: mean nematode size ln(EXT) after 48 h, plate-adjusted (DMSO control set to 6) (ln(EXT), control-adjusted); higher = larger nematodes / less growth inhibition
condition.details: 5 µM; exposure time 48 h

Recorded mean nematode size ln(EXT) (ln) of ClC1=C(Cl)[C@]2(Cl)[C@@H]3[C@@H](Cl)[C@H]4O[C@H]4[C@@H]3[C@@]1(Cl)C2(Cl)Cl (single isomer, unassigned; isomer b) [Heptachlor epoxide, isomer B] , please.
5.48

Entry `O=C(N[C@@H](c1ccccc1)[C@@H]1CCCCN1)c1cccc(C(F)(F)F)c1Cl` : reported mean nematode size ln(EXT) (ln) = ?
5.75

For the molecule CC(=O)OC[C@H]1O[C@@](COC(C)=O)(O[C@H]2O[C@H](COC(C)=O)[C@@H](OC(C)=O)[C@H](OC(C)=O)[C@H]2OC(C)=O)[C@@H](OC(C)=O)[C@@H]1OC(C)=O [Sucrose octaacetate] , what mean nematode size ln(EXT) (ln) is on record?
5.76

Using the record for `CC(C)Oc1cccc(NC(=O)c2ccccc2C(F)(F)F)c1` , report its mean nematode size ln(EXT) (ln).
6.08

GET /values?readout=mean nematode size ln(EXT) (ln)&item= `C1=CCCC=CCCC=CCC1`
5.9

# mean nematode size ln(EXT) (ln) lookup, item `NCc1cccc(C2CCN(C(=O)c3ccc(C#Cc4ccccc4F)o3)CC2)c1`
5.61

Given COCC(C)OCC(C)OCC(C)O (configuration not stated) , state its recorded mean nematode size ln(EXT) (ln).
5.88
